system: OVCAR-5; experiment: NCI tumour cell line growth inhibition, 48 h
Active and inactive are the calls of the source. Cut-off read from the data, not from the text of the source: active = GI50 up to about 1.1 µM and inactive = higher.
Entries and their measured GI50 follow.

A selection of reference data follows.
CCN(CC)CCOc1ccccc1/C=C/c1noc2ccccc12 ... 12.5 µM (inactive)
CC(C)(Oc1ccc(-c2cccc3ccccc23)cc1)C(=O)O ... > 100 µM (inactive)
NC(=O)C(=O)n1ncc(Cl)c(Cl)c1=O ... 37.5 µM (inactive)

Problem: Need GI50, item CCOC(=O)[C@H]1Nc2ccc(O)cc2C2c3ccccc3CC21 (stereo partly drawn)
Solution: > 100 µM (inactive)

Problem: Need GI50, item `Cc1ccc(Cc2n[nH]c(=O)n2-c2ccccc2)cc1`
Solution: > 100 µM (inactive)

Problem: Need GI50, item `O=[N+]([O-])c1cccc(S(=O)(=O)N/N=C/c2cc(I)cc([N+](=O)[O-])c2O)c1`
Solution: 40.1 µM (inactive)

Problem: Need GI50, item Cc1ccccc1C(C#N)/C(=N/NC(=O)c1cc2ccccc2cc1O)C(=O)Nc1cccc(Cl)c1 (stereo not drawn)
Solution: 13.4 µM (inactive)

Problem: Need GI50, item COC(=O)N1CC2(CO)C3CC=C(C(=O)Nc4ccccc4Br)C2C1C3Br (stereo not drawn)
Solution: > 50 µM (inactive)

Problem: Need GI50, item `CCCC(S(=O)(=O)c1ccccc1)S(=O)(=O)c1ccccc1`
Solution: > 100 µM (inactive)

Problem: Need GI50, item `Cc1ccc(-n2nnc3c(NNc4ccccc4)n[nH]c(=O)c32)cc1`
Solution: > 100 µM (inactive)

Problem: Need GI50, item O=C1CC(c2ccccc2)NCCCCN2CC(CN1)C(C(O)c1ccccc1)C2=O (stereo not drawn)
Solution: > 100 µM (inactive)

Problem: Need GI50, item COc1c(O)c(C=O)c2c(O)c(-c3c(C)cc4c(C(C)C)c(OC)c(O)c(C=O)c4c3O)c(C)cc2c1C(C)C [6,6'-METHOXYGOSSYPOL]
Solution: 7.08 µM (inactive)

Problem: Need GI50, item O=[N+]([O-])c1ccc2c(c1)nc(Cc1ccc(Cl)cc1)n2C[C@@H]1CCCN2CCCCC12 (stereo partly drawn)
Solution: 15.5 µM (inactive)
